# PROTOCOL_DETAILS: activity coefficient (dimensionless); of the first substance listed, at infinite dilution; xn = mol fraction of the nth substance listed
# CONDITIONS_USED: 333.15 K; 101 kPa; Liquid; dilutor technique; x1 = 0
ENDPOINT_LABEL: activity coefficient
Lab note: jot down the number only; don't add units.

Some compounds with recorded activity coefficient:
CCCCO [butan-1-ol] + CCn1cc[n+](C)c1.O=S(=O)([O-])O    0.62
CCCCO [butan-1-ol] + CCOS(=O)(=O)[O-].CCn1cc[n+](C)c1    1.39

Now for another entry.
// activity coefficient lookup, key: CC(C)O [propan-2-ol] + CCOS(=O)(=O)[O-].CCn1cc[n+](C)c1
1.04
